measured.on: NOV1401
Sequence (VL, as listed by the source): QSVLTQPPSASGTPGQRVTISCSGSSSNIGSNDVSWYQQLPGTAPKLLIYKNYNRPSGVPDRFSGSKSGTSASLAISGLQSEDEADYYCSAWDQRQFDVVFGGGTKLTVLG
test.description: cell-based or functional assay; note: test concentration or dose not given here
TGA percentage reversal, NOV1401/anti NOV1401 ratio 1/1 (n/n) values for the binders below.
experimental.endpoint: TGA percentage reversal, NOV1401/anti NOV1401 ratio 1/1 (n/n) (%)

binder	measured.result
IDT6 (Fab, V domains shown, Fab with a lambda light chain; also called anti-NOV1401 Fab IDT6) VH: QVQLVQSGAEVKKPGESLKISCKGSGYSFTNYWIGWVRQMPGKGLEWMGIIFPGVSYTKYSPSFQGQVTISADKSISTAYLQWSSLKASDTAMYYCARGSDQTLRGSRAMDYWGQGTLVTVSS VL: QSALTQPASVSGSPGQSITISCTGTSSDVGISNYVSWYQQHPGKAPKLMIYEVSNRPSGVSNRFSGSKSGNTASLTISGLQAEDEADYYCQSYTSLNYVFGGGTKLTVLG	18
IDT1 (Fab, V domains shown, Fab (heavy chain is VH-CH1); also called anti-NOV1401 Fab IDT1) VH: QVQLLESGGGLVQPGGSLRLSCAASGFTFSDYAMSWVRQAPGKGLEWVSVIDYSSSNTYYADSVKGRFTISRDNSKNTLYLQMNSLRAEDTAVYYCAREGYSYRSIRFDYWGQGTLVTVSS VL: DIQMTQSPSSLSASVGDRVTITCRASQSISSNLNWYQQKPGKAPKLLIYAASNLQSGVPSRFSGSGSGTDFTLTISSLQPEDFATYYCLQFDHTPFTFGQGTKVEIKR	49
IDT3 (Fab, V domains shown, Fab; also called anti-NOV1401 Fab IDT3) VH: QVQLVESGGGLVKPGGSLRLSCAASGFTFQSAAVHWVRQAPGKGLEWVGRIKSKADGGTTDYAAPVKGRFTISRDDSKNTLYLQMNSLKTEDTAVYYCARDSPSISSYSIPYFSGMDVWGQGTLVTVSS VL: DIQMTQSPSSLSASVGDRVTITCRASQGIRAWLNWYQQKPGKAPKLLIYAASSLQSGVPSRFSGSGSGTDFTLTISSLQPEDFATYYCHQYITHPPTFGQGTKVEIKR	31
IDT5 (Fab, V domains shown, Fab; also called anti-NOV1401 Fab IDT5) VH: QVQLVESGGGLVKPGGSLRLSCAASGFTFSSAAVHWVRQAPGKGLEWVGRIKSKADAGTTDYAAPVKGRFTISRDDSKNTLYLQMNSLKTEDTAVYYCARDSPSISSYSIPYFSGMDVWGQGTLVTVSS VL: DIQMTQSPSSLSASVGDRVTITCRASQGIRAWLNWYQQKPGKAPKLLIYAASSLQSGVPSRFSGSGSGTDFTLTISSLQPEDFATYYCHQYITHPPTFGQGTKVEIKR	55
IDT2 (Fab, V domains shown, Fab; also called anti-NOV1401 Fab IDT2) VH: QVQLVESGGGLVKPGGSLRLSCAASGFTFSSAAVHWVRQAPGKGLEWVGRIKSKADGGTTDYAAPVKGRFTISRDDSKNTLYLQMNSLKTEDTAVYYCARDSPSISSYSIPYFSGMDVWGQGTLVTVSS VL: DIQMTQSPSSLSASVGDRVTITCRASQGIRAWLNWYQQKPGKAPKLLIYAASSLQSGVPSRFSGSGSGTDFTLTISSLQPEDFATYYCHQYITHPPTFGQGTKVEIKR	55
